# Experiment: physchem
# Format: physicochemical
# Measurement Context: acetone, organic solvent or mixture; read-out: solubility in acetone
Measured Attribute: solubility

Can you share its solubility? I mean this compound: CC=CC1C=CC2CC(C)CCC2C1(C)C(O)=C1C(=O)C(CO)N(C)C1=O (stereo not shown) [equisetin] > 660 mg/mL

----------
# Experiment: physchem
# Assay type: physicochemical
# Measurement Context: water; insoluble; read-out: solubility in water
Measured Attribute: solubility

I am curious: what solubility value has been reported for CC=CC1C=CC2CC(C)CCC2C1(C)C(O)=C1C(=O)C(CO)N(C)C1=O (stereo not shown) ? < 300 µg/mL

The values you see were collected from patent US3959468A.
